- assay target: T1, RBD derived from SARS-CoV-2 (Wuhan strain) (SARS-CoV-2 (Wuhan strain), UniProt P0DTC2 319-541)
- T1 construct: domain: RBD
- experiment: RBD beads, antibody 4 µg/mL, then labelled ACE2, flow cytometry
What fluorescence of ACE2 protein was measured for each of the following?
Give bare numbers.

binder | parameter measured | result number
Ab374 (antibody, V domains shown) VH: EVQLVESGGGLIQPGGSLRLSCVASGFTVSSNYLAWVRQAPGQGLEWVSLIYPGGSTFYADSVKGRFTISRGNSNNTLYLQLNSLRTEDTAVYYCASLYRRGGDSWGQGTLVTVSS VL: DIQMTQSPSSLSASVGDRVTITCQASQDIRNYLNWYQQKPGKAPKLLIYDASNLQTGVPSRFSGRGSGTDFTFTISSLQAEDIATYYCQQYDNLPITFGQGTRLEIK | fluorescence of ACE2 protein | 244

Ask: Can you look up the measured fluorescence of ACE2 protein of Ab336 (antibody, V domains shown) VH: QVQLQQSGPGLVKPSETLSLTCTVSGGSISSYYWTWIRQPPGKGLEWIAYISYSGSTNYNPSLRSRVTISVDTSKNQFSLKLSSVTAADTAVYYCARDYYYDNSGYPDSYYGMDVWGQGTTVTVSS VL: DIQLTQSPSTLSASVGDRVTITCRASQRISSWLAWYQQKPGKAPKLLIYKASTLQSGVPSRFSGSGSGTEFTLTISSLQPDDFATYYCQQYNSFSWTFGQGTKVEIK for me?
Result: 106
